system: P. aeruginosa FADDI-PA070, PmxR; format: cell-based, Pseudomonas aeruginosa; conditions: polymyxin resistant clinical isolate; MHB, 5 × 10^5 CFU/mL, 18 h at 37 °C
Bridge positions count the residues as written; N and C are the ends. Square brackets hold non-standard residues; d marks the D form. Peptide text beside a SMILES is read from it. * marks the point of attachment. Octanoyl = CCCCCCCC(=O)*; Dab = NCC[C@H](N)C(=O)O
readout.label: MIC P. aeruginosa FADDI-PA070, PmxR

Lab entry: P. aeruginosa FADDI-PA070, PmxR assay, compound CCCCCCCC(=O)N[C@@H](CCN)C(=O)N[C@H](C(=O)N[C@@H](CCN)C(=O)N[C@H]1CCNC(=O)[C@H]([C@@H](C)O)NC(=O)[C@H](CCN)NC(=O)[C@H](CCN)NC(=O)[C@H](CC(C)C)NC(=O)[C@@H](Cc2ccccc2)NC(=O)[C@H](CCN)NC1=O)[C@@H](C)O [Compound 11, polymyxin B3] (Octanoyl-[Dab]T[Dab][Dab][Dab][dF]L[Dab][Dab]T; lactam 4-C) , MIC P. aeruginosa FADDI-PA070, PmxR = >32 µg/mL
